Collected pIC50 values appear next to each entry.
- Method description: in vitro
- Condition context: African green monkey
# reply with the number alone; pIC50 is -log10 of concentration in mol/L

Cc1coc2c1CCC(C)C2 (centres unmarked) :: 3.30

Now look at this one.
// Input: Cc1ccc(C(C)C)cc1O . Output its pIC50 only. 3.34

---

Collected EC50 values appear next to each entry.
- Test system: SARS-CoV-2
- Method description: microbe, parasite or virus in culture
- Assay type: cell-based
- Condition context: Severe acute respiratory syndrome coronavirus 2, Vero 76, 72 h, read-out: EC50 SARS-Cov2, monoterpenes; infected Vero 76 cells, 0.02 MOI, 72 h, MTT; tested 1,000–4.91 μM; mean ± SD

Example results:
Cc1ccc(C(C)C)cc1O :: 86.5 µM
Cc1coc2c1CCC(C)C2 (stereo not shown) :: > 100 µM

Write down the reported EC50 (system: SARS-CoV-2) of CC(C)=C1CC[C@@H](C)CC1=O > 100 µM

Write down the reported EC50 (system: SARS-CoV-2) of C=CC(C)(O)CCC=C(C)C (stereo not shown) > 1000 µM

---

- Method description: in vitro
- Condition context: African green monkey
Collected IC50 values appear next to each entry.

C=CC(C)(O)CCC=C(C)C (stereo not drawn) :: > 1000 µM
CC(C)=C1CC[C@@H](C)CC1=O :: > 1000 µM

Now look at this one.
// Input: CCN(CC)CCCC(C)Nc1ccnc2cc(Cl)ccc12 (stereo not drawn) [Chloroquine, reference compound] . Output its IC50 only. > 1000 µM
